biological target: Pro-neuregulin-1, membrane-bound isoform (Homo sapiens) (UniProt Q02297); assay: NRG1 binders on small-molecule microarrays, primary screen, psychiatric disease protein project, biochemical, small-molecule microarray, fluorescence 635/667 (AID 1075); details: NRG1 binding, 635 nm fluorescence, higher = more signal;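 also: score combines 667 nm spot fluorescence with signal to noise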
Sequence (Q02297 whole entry, looked up, canonical isoform): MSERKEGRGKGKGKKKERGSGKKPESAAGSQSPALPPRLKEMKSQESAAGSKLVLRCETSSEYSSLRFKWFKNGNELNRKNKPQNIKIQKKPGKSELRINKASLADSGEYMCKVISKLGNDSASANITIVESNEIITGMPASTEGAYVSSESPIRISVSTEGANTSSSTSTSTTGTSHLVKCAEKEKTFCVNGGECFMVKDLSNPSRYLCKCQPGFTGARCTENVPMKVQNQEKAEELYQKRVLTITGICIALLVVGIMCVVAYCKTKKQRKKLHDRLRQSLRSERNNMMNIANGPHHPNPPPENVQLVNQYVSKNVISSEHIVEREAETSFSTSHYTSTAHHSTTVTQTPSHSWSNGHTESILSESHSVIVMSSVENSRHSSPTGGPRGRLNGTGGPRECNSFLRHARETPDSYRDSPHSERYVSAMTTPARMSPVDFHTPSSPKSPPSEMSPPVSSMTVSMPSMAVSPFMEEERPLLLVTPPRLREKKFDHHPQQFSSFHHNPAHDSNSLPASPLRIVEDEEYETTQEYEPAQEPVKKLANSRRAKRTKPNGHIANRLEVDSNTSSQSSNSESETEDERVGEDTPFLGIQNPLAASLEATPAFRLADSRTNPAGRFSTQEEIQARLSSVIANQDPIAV
Quantity Kind: composite z-score

// worked examples, composite z-score included
{"Compound": "COCCOC(=O)N1C(=O)[C@@]2(c3cc(C#CC4(O)CCCCCC4)ccc31)[C@H](c1ccc(OCCO)cc1)N1[C@H](c3ccccc3)[C@H](c3ccccc3)OC(=O)[C@H]1[C@@H]2C(N)=O", "Obs Value": 1.32}
{"Compound": "NCCCC[C@@H]1NC(=O)[C@H]2C[C@@H](C(=O)NCc3ccc(F)cc3)[C@@H](c3cccc(OCCO)c3)N2C1=O", "Obs Value": 1.09}
{"Compound": "COCCOC(=O)N1C(=O)[C@@]2(c3cc(C#CCNC(N)=O)ccc31)[C@H](C(=O)NC[C@H](O)c1ccccc1)[C@H]1C(=O)O[C@H](c3ccccc3)[C@H](c3ccccc3)N1[C@@H]2c1ccc(OCCO)cc1", "Obs Value": 0.634}
{"Compound": "C=CCC(OC(C)=O)[C@@H]1[C@@H](N(Cc2ccc(-c3cccc(C(F)(F)F)c3)o2)C(=O)Cc2ccc(F)cc2)c2cc(OCCCO)ccc2N1C(=O)c1ccc2ccccc2n1 (stereo partly specified)", "Obs Value": -0.114}
{"Compound": "CCCC[C@H]1OB(O)C[C@H]2C1=C(C)C[C@H]1C(=O)C=CC(=O)[C@H]12", "Obs Value": 0.532}

Returns the measured composite z-score for the input compound. Input: CC(c1ccccc1)C(O)C1C=CC2C(=O)N(c3ccccc3)C(=O)C2N1Nc1ccc(C#N)cc1 (stereo unspecified)
1.91

====

molecular target: Torsin-1A (Homo sapiens) (UniProt O14656); assay: torsin A binders from cell lysate, primary screen, small-molecule microarray, wild-type, 635/667 nm (AID 1149); details: COS7 hTOR1A-WT lysate, 635 nm fluorescence, higher = more signal
Sequence (O14656 whole entry, looked up): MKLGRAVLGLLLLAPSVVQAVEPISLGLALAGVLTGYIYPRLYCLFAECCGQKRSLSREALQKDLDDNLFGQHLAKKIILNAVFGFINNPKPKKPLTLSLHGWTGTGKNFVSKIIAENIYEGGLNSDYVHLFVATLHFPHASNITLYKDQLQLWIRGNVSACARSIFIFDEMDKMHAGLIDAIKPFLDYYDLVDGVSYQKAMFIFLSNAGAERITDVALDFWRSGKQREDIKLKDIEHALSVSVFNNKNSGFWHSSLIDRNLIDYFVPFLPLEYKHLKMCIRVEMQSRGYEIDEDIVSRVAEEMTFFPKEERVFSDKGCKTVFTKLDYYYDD
Quick reference for composite z-score among some compounds

// worked examples, composite z-score included
{"Compound": "C=CCC(OC(C)=O)[C@@H]1[C@@H](N(Cc2ccc(-c3cccc(C(F)(F)F)c3)o2)C(=O)Cc2ccc(F)cc2)c2cc(OCCCO)ccc2N1C(=O)c1ccc2ccccc2n1 (stereo partly drawn)", "Quantity Kind": "composite z-score", "Obs Value": -0.187}
{"Compound": "COc1ccc(NN2C(C(O)c3ccc(OC)cc3)C=CC3C(=O)N(C4CCCCC4)C(=O)C32)cc1 (stereo not drawn)", "Quantity Kind": "composite z-score", "Obs Value": 0.118}

Returns the measured composite z-score for the input compound. Input: `CO[C@H]1O[C@H](CO)[C@@H](OC(=O)Nc2ccc3c(c2)OCO3)[C@@H]2OC(=O)[C@@H](Cc3ccccc3)C/C=C/C[C@H](Cc3ccccc3)C(=O)O[C@@H]12`
-0.0548

Now consider `C=CCOC(=O)[C@H]1[C@@H]2C(=O)O[C@@H](c3ccccc3)[C@@H](c3ccccc3)N2[C@@H](c2ccc(OCCOC(=O)[C@@H]3C[C@@H]4C(=O)N[C@@H](CC(C)C)C(=O)N4[C@@H]3c3ccc(O)cc3)cc2)[C@]12C(=O)Nc1ccc(I)cc12` and answer again.
0.637

Now consider CCCCN1CC=CC23O[C@@H]4/C=C\CCC(C)OC(=O)C4[C@H]2C(=O)N(C(C)CO)[C@@H]3C1=O (stereo partly drawn) and answer again.
-0.185

Now consider `O=C(NCCO)C1=C[C@H](Oc2ccccc2I)[C@@H](O)[C@H](NCc2ccc(F)cc2)C1` and answer again.
0.693

Now consider `COC(=O)[C@@H]1N=C(c2ccc(OCCCO)cc2)O[C@@H]1c1ccccc1CN=[N+]=[N-]` and answer again.
-1.73

Now consider `COCCOC(=O)N1C(=O)[C@@]2(c3cc(C#CCCO)ccc31)[C@H](C(=O)N1CCc3cc(OC)c(OC)cc3C1)[C@H]1C(=O)O[C@H](c3ccccc3)[C@H](c3ccccc3)N1[C@@H]2c1ccccc1OCCO` and answer again.
0.258

Now consider `CN(C)CCCC[C@@H]1NC(=O)[C@@H]2C[C@H](C(=O)NCc3ccc(F)cc3)[C@H](c3ccc(O)cc3)N2C1=O` and answer again.
0.704

Now consider `COCCCNC(=O)[C@@H]1c2ccccc2C(=O)N(Cc2cc(C(F)(F)F)cc(C(F)(F)F)c2)[C@H]1c1ccc(CO)cc1` and answer again.
0.47

Now consider `CO[C@H]1O[C@H](CO)[C@@H](OC(=O)Nc2ccccc2)[C@@H]2OC(=O)[C@H](Cc3ccccc3)C/C=C/C[C@@H](Cc3ccccc3)C(=O)O[C@@H]12` and answer again.
0.527

Now consider `NC(=O)[C@@]1(CCS(=O)(=O)c2ccccc2)COC(c2ccc(OCCCO)cc2)=N1` and answer again.
-0.0756

Now consider C=CCC(OC(C)=O)[C@@H]1[C@@H](N(Cc2cccc3ccccc23)C(=O)c2ccc(C)cc2)c2cc(OCCCO)ccc2N1C(=O)c1ccc2ccccc2n1 (stereo partly drawn) and answer again.
-0.0107

====

target: E3 ubiquitin-protein ligase XIAP (Homo sapiens) (UniProt P98170); assay: XIAP binders, primary screen, biophysical, small-molecule microarray, fluorescence 635 nm (AID 1181); conditions: small-molecule microarray binding, higher = more signal;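 also: score merges 667 nm emission and signal to noise over triplicate slides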
Sequence (P98170 whole entry, looked up): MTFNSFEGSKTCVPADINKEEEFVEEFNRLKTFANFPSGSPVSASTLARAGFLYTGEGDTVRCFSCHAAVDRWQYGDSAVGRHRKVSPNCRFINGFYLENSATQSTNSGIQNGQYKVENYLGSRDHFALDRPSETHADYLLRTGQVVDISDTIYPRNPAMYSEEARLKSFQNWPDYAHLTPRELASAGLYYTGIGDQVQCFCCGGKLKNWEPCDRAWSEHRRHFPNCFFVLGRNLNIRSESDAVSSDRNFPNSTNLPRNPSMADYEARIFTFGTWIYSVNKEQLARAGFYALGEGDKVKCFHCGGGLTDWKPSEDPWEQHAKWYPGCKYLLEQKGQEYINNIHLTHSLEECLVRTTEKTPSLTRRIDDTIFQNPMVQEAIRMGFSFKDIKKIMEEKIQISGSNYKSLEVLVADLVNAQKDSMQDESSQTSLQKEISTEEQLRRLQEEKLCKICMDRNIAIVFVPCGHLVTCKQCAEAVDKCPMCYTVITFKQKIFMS
Parameter threshold = -0.01. Response is MET when composite z-score meets or exceeds it, else NOT MET.

Past entries and their recorded results:
{"Compound": "COc1ccc(CCNC(=O)[C@@]2(C)c3ccccc3C(=O)N(Cc3cc(C(F)(F)F)cc(C(F)(F)F)c3)[C@H]2c2ccc(CO)cc2)cc1", "Class Name": "MET"}
{"Compound": "CCCCN1CC=CC23O[C@@H]4C=CCOC(=O)[C@@H]4[C@H]2C(=O)N(C(CO)C(C)C)[C@@H]3C1=O (some centres undefined)", "Class Name": "NOT MET"}
{"Compound": "C=CCOC(=O)[C@H]1[C@@H]2C(=O)O[C@@H](c3ccccc3)[C@@H](c3ccccc3)N2[C@@H](c2ccc(OCCOC(=O)[C@@H]3C[C@@H]4C(=O)N[C@@H](Cc5ccccc5)C(=O)N4[C@@H]3c3ccc(O)cc3)cc2)[C@]12C(=O)Nc1ccccc12", "Class Name": "MET"}
{"Compound": "C=CC[C@@]1(C(=O)O)N=C(c2ccc(OCCCO)cc2)O[C@@H]1c1ccccc1CN=[N+]=[N-]", "Class Name": "MET"}
{"Compound": "O=C1OCCC=C[C@H]2OC34C=CCN(c5ccc(Cl)cc5)C(=O)[C@H]3N(CCO)C(=O)[C@@H]4C12 (some centres undefined)", "Class Name": "NOT MET"}
{"Compound": "C=CCNC(=O)[C@@H]1[C@H]2C(=O)O[C@H](c3ccccc3)[C@H](c3ccccc3)N2[C@H](c2ccc(O)cc2)[C@@]12C(=O)Nc1ccc(C#CC3(O)CCCCCC3)cc12", "Class Name": "NOT MET"}
{"Compound": "CC(C)C[C@@H]1NC(=O)[C@@]23C(=O)N[C@@H](Cc4ccccc4)C2[C@H](C)[C@@]2(C)O[C@H]2C3/C=C/C/C=C\\CNC(=O)[C@@H](CC(C)C)NC1=O (some centres undefined)", "Class Name": "NOT MET"}
{"Compound": "COC(=O)C1(CC(C)C)C=C2C(=C(C(C)C)C(=O)C2C)CN1 (centres undefined)", "Class Name": "MET"}
{"Compound": "COCCOC(=O)N1C(=O)[C@@]2(c3cc(C#CC4(O)CCCCCC4)ccc31)[C@H](c1ccc(OCCO)cc1)N1[C@H](c3ccccc3)[C@H](c3ccccc3)OC(=O)[C@H]1[C@@H]2C(N)=O", "Class Name": "NOT MET"}
{"Compound": "C=C(COC)C(=O)CC[C@@H](OC(C)=O)c1ccc(OCCO)cc1", "Class Name": "NOT MET"}

Textbook exercise: given the entry `NC(=O)[C@@]1(CCS(=O)(=O)c2ccccc2)COC(c2ccc(OCCCO)cc2)=N1` , state whether its composite z-score is greater than or equal to -0.01.
MET

Now consider `CCC[C@@H]1C=C(C(=O)OCC)[C@H](c2ccccc2)N1S(=O)(=O)c1ccc(C)cc1` and answer again.
NOT MET

Now consider `CN(C)CCCNC(=O)[C@@H]1c2ccccc2C(=O)N(C2Cc3ccccc3C2)[C@H]1c1ccc(CO)cc1` and answer again.
MET

====

test system: PRMT1 (protein arginine N-methyltransferase 1); test: PRMT1 binders on small-molecule microarrays, primary screen, biochemical, small-molecule microarray, 635 nm fluorescence (AID 1088); details: small-molecule microarray binding, higher = more signal;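 also: binding of Prmt1 protein to compounds spotted on small-molecule microarray slides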
Quantity Kind: composite z-score
Keep the answer to the number alone.

{"Compound": "CCCCCCc1nc(-c2ccc(OC)nc2)cc2c1[Si](C(C)C)(C(C)C)OC2", "Target Or System": "PRMT1 (protein arginine N-methyltransferase 1)", "composite z-score": -0.741}
{"Compound": "C=CCOC(=O)[C@H]1[C@@H]2C(=O)O[C@@H](c3ccccc3)[C@@H](c3ccccc3)N2[C@@H](c2ccc(OCCOC(=O)[C@H]3C[C@H]4C(=O)NCC(=O)N4[C@H]3c3ccc(O)cc3)cc2)[C@]12C(=O)Nc1ccc(I)cc12", "Target Or System": "PRMT1 (protein arginine N-methyltransferase 1)", "composite z-score": 1.3}
{"Compound": "C=CCC(OC(C)=O)[C@@H]1[C@@H](N(Cc2ccc(-c3cccc(C(F)(F)F)c3)o2)C(=O)Cc2ccc(OC)cc2)c2cc(OCCCO)ccc2N1C(=O)c1ccc2ccccc2n1 (some centres undefined)", "Target Or System": "PRMT1 (protein arginine N-methyltransferase 1)", "composite z-score": -0.538}

Let's switch to this compound now.
API: value(readout= composite z-score, system= PRMT1 (protein arginine N-methyltransferase 1), query= `COCCCNC(=O)[C@@]1(Sc2ccc(C)cc2)CC(=O)N(C2CCCCC2)[C@@H]1c1ccc(CO)cc1I` )
1.54
